Where these numbers come from: ChEMBL document CHEMBL3885861

species: Rattus norvegicus; assay: Open TG-GATES - Regimen: Daily Repeat; format: toxicity, organism-based, Sprague-Dawley; parameters: regimen Daily Repeat, gender Male, age 6 weeks; settings: in vivo, po, 1000 mg/kg, […], tissue Blood, route gavage, dose level High, time 7 day
As shown below, each of these molecules has a reported Mono value.

{"molecule": "O=C(OC[C@H]1O[C@@H](OC(=O)c2cc(O)c(O)c(OC(=O)c3cc(O)c(O)c(O)c3)c2)[C@H](OC(=O)c2cc(O)c(O)c(OC(=O)c3cc(O)c(O)c(O)c3)c2)[C@@H](OC(=O)c2cc(O)c(O)c(OC(=O)c3cc(O)c(O)c(O)c3)c2)[C@@H]1OC(=O)c1cc(O)c(O)c(OC(=O)c2cc(O)c(O)c(O)c2)c1)c1cc(O)c(O)c(OC(=O)c2cc(O)c(O)c(O)c2)c1 [TANNIC ACID]", "Mono (%)": 6}
{"molecule": "CCOc1ccc(NC(C)=O)cc1 [PHENACETIN]", "Mono (%)": 3}
{"molecule": "COC(=O)C1=C(C)NC(C)=C(C(=O)OC)C1c1ccccc1[N+](=O)[O-] [NIFEDIPINE]", "Mono (%)": 2.8}
{"molecule": "CN/C(=N/CCSCc1nc[nH]c1C)NC#N [CIMETIDINE]", "Mono (%)": 2.6}
{"molecule": "CNC(=C[N+](=O)[O-])NCCSCc1ccc(CN(C)C)o1 [RANITIDINE]", "Mono (%)": 1.6}
{"molecule": "Cc1nnc2n1-c1ccc(Cl)cc1C(c1ccccc1Cl)=NC2 [TRIAZOLAM]", "Mono (%)": 2.6}

====

Measured Neu by item
species: Rattus norvegicus; assay: Open TG-GATES - Regimen: Single; format: toxicity, organism-based, Sprague-Dawley; design: regimen Single, gender Male, age 6 weeks; conditions: in vivo, po, 0 mg/kg, 3 h, tissue Blood, route gavage, dose level Control

{"compound": "CCOc1ccc(NC(C)=O)cc1 [PHENACETIN]", "quantityUnit": "%", "Neu": 17.8}
{"compound": "Cc1nnc2n1-c1ccc(Cl)cc1C(c1ccccc1Cl)=NC2 [TRIAZOLAM]", "quantityUnit": "%", "Neu": 19.2}
{"compound": "CN1C(=O)CCS(=O)(=O)C1c1ccc(Cl)cc1 (centres undefined) [CHLORMEZANONE]", "quantityUnit": "%", "Neu": 15}
{"compound": "CN/C(=N/CCSCc1nc[nH]c1C)NC#N [CIMETIDINE]", "quantityUnit": "%", "Neu": 19.2}
{"compound": "NC1=NC(=O)C(c2ccccc2)O1 (centres undefined) [PEMOLINE]", "quantityUnit": "%", "Neu": 16.6}
{"compound": "CNC(=C[N+](=O)[O-])NCCSCc1ccc(CN(C)C)o1 [RANITIDINE]", "quantityUnit": "%", "Neu": 10.2}
{"compound": "CCCc1cc(=O)[nH]c(=S)[nH]1 [PROPYLTHIOURACIL]", "quantityUnit": "%", "Neu": 14.6}
{"compound": "Nc1c2c(nc3ccccc13)CCCC2 [TACRINE]", "quantityUnit": "%", "Neu": 15}
{"compound": "CS(=O)(=O)O.Cc1ccc(NC(=O)c2ccc(CN3CCN(C)CC3)cc2)cc1Nc1nccc(-c2cccnc2)n1 [IMATINIB MESYLATE]", "quantityUnit": "%", "Neu": 18.6}
{"compound": "CN(C)CCC(c1ccc(Cl)cc1)c1ccccn1 (centres undefined) [CHLORPHENIRAMINE]", "quantityUnit": "%", "Neu": 18.2}
{"compound": "CC(C)NNC(=O)c1ccncc1 [IPRONIAZID]", "quantityUnit": "%", "Neu": 15}
{"compound": "Brc1ccccc1 [BROMOBENZENE]", "quantityUnit": "%", "Neu": 21.6}
{"compound": "COC(=O)C1=C(C)NC(C)=C(C(=O)OC)C1c1ccccc1[N+](=O)[O-] [NIFEDIPINE]", "quantityUnit": "%", "Neu": 21.2}
{"compound": "O=C(OC[C@H]1O[C@@H](OC(=O)c2cc(O)c(O)c(OC(=O)c3cc(O)c(O)c(O)c3)c2)[C@H](OC(=O)c2cc(O)c(O)c(OC(=O)c3cc(O)c(O)c(O)c3)c2)[C@@H](OC(=O)c2cc(O)c(O)c(OC(=O)c3cc(O)c(O)c(O)c3)c2)[C@@H]1OC(=O)c1cc(O)c(O)c(OC(=O)c2cc(O)c(O)c(O)c2)c1)c1cc(O)c(O)c(OC(=O)c2cc(O)c(O)c(O)c2)c1 [TANNIC ACID]", "quantityUnit": "%", "Neu": 15.2}

====

Entries and their RBC
organism: Rattus norvegicus; test: Open TG-GATES - Regimen: Single; type: toxicity, organism-based, Sprague-Dawley; design: regimen Single, gender Male, age 6 weeks; conditions: in vivo, po, 0 mg/kg, 24 h, tissue Blood, route gavage, dose level Control

{"compound": "Brc1ccccc1", "quantityUnit": "x10_4/ul", "RBC": 598.2}
{"compound": "Nc1c2c(nc3ccccc13)CCCC2", "quantityUnit": "x10_4/ul", "RBC": 626.2}
{"compound": "COC(=O)C1=C(C)NC(C)=C(C(=O)OC)C1c1ccccc1[N+](=O)[O-]", "quantityUnit": "x10_4/ul", "RBC": 620}
{"compound": "CCOc1ccc(NC(C)=O)cc1", "quantityUnit": "x10_4/ul", "RBC": 630.4}
{"compound": "CNC(=C[N+](=O)[O-])NCCSCc1ccc(CN(C)C)o1", "quantityUnit": "x10_4/ul", "RBC": 611.2}
{"compound": "NC1=NC(=O)C(c2ccccc2)O1 (stereo unspecified)", "quantityUnit": "x10_4/ul", "RBC": 588.4}

====

Entries annotated with measured CRE
species on record: Rattus norvegicus; experiment: Open TG-GATES - Regimen: Daily Repeat; assay type: toxicity, organism-based, Sprague-Dawley; design: regimen Daily Repeat, gender Male, age 6 weeks; settings: in vivo, po, 100 mg/kg, […], tissue Plasma, route gavage, dose level Low, time 28 day
experimentalReadout: CRE

{"structureNotation": "CNC(=C[N+](=O)[O-])NCCSCc1ccc(CN(C)C)o1", "testResult": "0.5 mg/dL"}
{"structureNotation": "CCOc1ccc(NC(C)=O)cc1", "testResult": "0.3 mg/dL"}
{"structureNotation": "Cc1nnc2n1-c1ccc(Cl)cc1C(c1ccccc1Cl)=NC2", "testResult": "0.2 mg/dL"}
{"structureNotation": "COC(=O)C1=C(C)NC(C)=C(C(=O)OC)C1c1ccccc1[N+](=O)[O-]", "testResult": "0.3 mg/dL"}
{"structureNotation": "CN/C(=N/CCSCc1nc[nH]c1C)NC#N", "testResult": "0.6 mg/dL"}
{"structureNotation": "O=C(OC[C@H]1O[C@@H](OC(=O)c2cc(O)c(O)c(OC(=O)c3cc(O)c(O)c(O)c3)c2)[C@H](OC(=O)c2cc(O)c(O)c(OC(=O)c3cc(O)c(O)c(O)c3)c2)[C@@H](OC(=O)c2cc(O)c(O)c(OC(=O)c3cc(O)c(O)c(O)c3)c2)[C@@H]1OC(=O)c1cc(O)c(O)c(OC(=O)c2cc(O)c(O)c(O)c2)c1)c1cc(O)c(O)c(OC(=O)c2cc(O)c(O)c(O)c2)c1", "testResult": "0.6 mg/dL"}

====

species on record: Rattus norvegicus; experiment: Open TG-GATES - Regimen: Single; format: toxicity, organism-based, Sprague-Dawley; set-up: regimen Single, gender Male, age 6 weeks; conditions: in vivo, po, 1000 mg/kg, 24 h, tissue Blood, route gavage, dose level High
experimentalReadout: MCV (fL)

{"compound": "CNC(=C[N+](=O)[O-])NCCSCc1ccc(CN(C)C)o1 [RANITIDINE]", "testResult": 63}
{"compound": "COC(=O)C1=C(C)NC(C)=C(C(=O)OC)C1c1ccccc1[N+](=O)[O-] [NIFEDIPINE]", "testResult": 63.3}
{"compound": "CN/C(=N/CCSCc1nc[nH]c1C)NC#N [CIMETIDINE]", "testResult": 63.4}

====

Here the recorded MCHC is given for each entry.
species on record: Rattus norvegicus; test: Open TG-GATES - Regimen: Daily Repeat; assay type: toxicity, organism-based, Sprague-Dawley; parameters: regimen Daily Repeat, gender Male, age 6 weeks; conditions: in vivo, po, 100 mg/kg, […], tissue Blood, route gavage, dose level Low, time 7 day
experimentalReadout: MCHC (%)

{"structureNotation": "O=C(OC[C@H]1O[C@@H](OC(=O)c2cc(O)c(O)c(OC(=O)c3cc(O)c(O)c(O)c3)c2)[C@H](OC(=O)c2cc(O)c(O)c(OC(=O)c3cc(O)c(O)c(O)c3)c2)[C@@H](OC(=O)c2cc(O)c(O)c(OC(=O)c3cc(O)c(O)c(O)c3)c2)[C@@H]1OC(=O)c1cc(O)c(O)c(OC(=O)c2cc(O)c(O)c(O)c2)c1)c1cc(O)c(O)c(OC(=O)c2cc(O)c(O)c(O)c2)c1", "experimentalReadout": "MCHC", "quantityUnit": "%", "testResult": 33.3}
{"structureNotation": "CNC(=C[N+](=O)[O-])NCCSCc1ccc(CN(C)C)o1", "experimentalReadout": "MCHC", "quantityUnit": "%", "testResult": 35.2}
{"structureNotation": "CCOc1ccc(NC(C)=O)cc1", "experimentalReadout": "MCHC", "quantityUnit": "%", "testResult": 33.7}
{"structureNotation": "CN/C(=N/CCSCc1nc[nH]c1C)NC#N", "experimentalReadout": "MCHC", "quantityUnit": "%", "testResult": 33.4}
{"structureNotation": "Cc1nnc2n1-c1ccc(Cl)cc1C(c1ccccc1Cl)=NC2", "experimentalReadout": "MCHC", "quantityUnit": "%", "testResult": 33.5}
{"structureNotation": "COC(=O)C1=C(C)NC(C)=C(C(=O)OC)C1c1ccccc1[N+](=O)[O-]", "experimentalReadout": "MCHC", "quantityUnit": "%", "testResult": 32.8}
